Test system: RIPK1;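 also: KINOMEscan kinase panel screen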
conditions.used: concentration: 1 μM,replicates: in singlicate; n = 1
quantity.name: %Inh (%)

| structure.string | unit.string | value |
| --- | --- | --- |
| CC(C)N1C(=O)Cc2cc(Nc3ncc(C(F)(F)F)c(NCc4cccc(S(C)(=O)=O)c4)n3)ccc21 | % | 0 |
| CCN(CC)CCOc1ccc(Nc2ncc3cc(-c4c(Cl)cccc4Cl)c(=O)n(C)c3n2)cc1 | % | 100 |
| Cc1ccc(-n2nc(C(C)(C)C)cc2NC(=O)Nc2ccc(OCCN3CCOCC3)c3ccccc23)cc1 | % | 29 |
| CCN(CC)CCCCNc1ncc2cc(-c3c(Cl)cccc3Cl)c(NC(=O)NC(C)(C)C)nc2n1 | % | 17 |
| Cc1n[nH]c2ccc(-c3cc(OC[C@@H](N)Cc4ccccc4)cnc3-c3ccoc3)cc12.O=C(O)C(F)(F)F.O=C(O)C(F)(F)F | % | 0 |
| COc1ccc(C[C@@H](CN)NC(=O)c2cc(Br)c(-c3ccnc4[nH]ccc34)s2)cc1.Cl.Cl | % | 0 |
| O=C(NCCCN1CCOC1=O)c1cnc(NCc2cc(Cl)ccc2Cl)nc1NC1CCCC1 | % | 1 |
